Experiment: Cmax in rat at 2 mg/kg, po
Format: ADME, organism-based
Parameters: dose 2 mg/kg, route oral
Details: in vivo
quantity.kind: Cmax (µM)
Return type: number; implicit unit µM.

Look at this molecule and give its reported Cmax. "CC(C)(C(=O)O)c1ccc(-c2ccccc2)c(F)c1"
15.2

====

Test: Clearance in mouse at 2 mg/kg, iv
Assay type: ADME, organism-based
Design: dose 2 mg/kg, route intravenous
Conditions: in vivo
quantity.kind: clearance (mL/min/kg)
Return type: number; implicit unit mL/min/kg.

Look at this molecule and give its reported clearance. "CC(C)(C(=O)O)c1ccc(-c2ccccc2)c(F)c1"
0.7

====

Target: Gamma-secretase (Homo sapiens) (UniProt Q96BI3+Q9NZ42+Q8WW43+P49768+Q92542+P49810)
Assay: Inhibition of beta amyloid protein 42 in SH-SY5Y cell lines overexpressing SPA4CT at 100 uM
Type: functional, cell-based
quantity.kind: inhibition (%)
Return type: number; implicit unit %.

Look at this compound and give its reported inhibition. C[C@H](C(=O)O)c1ccc(-c2ccccc2)c(F)c1 [ESFLURBIPROFEN]
37

Similarly, C[C@@H](C(=O)O)c1ccc(-c2ccccc2)c(F)c1 [TARENFLURBIL] ?
23

Similarly, COc1ccc2c(c1)c(CC(=O)O)c(C)n2C(=O)c1ccc(Cl)cc1 [INDOMETHACIN] ?
53

Similarly, "O=C(O)Cc1ccccc1Nc1c(Cl)cccc1Cl" ?
17

Data origin: ChEMBL document CHEMBL1146967
